Source of measurements: ChEMBL document CHEMBL1145517

Recorded IC50, one value per entry.
- target of assay: Squalene synthase (Homo sapiens, UniProt P37268)
- Sequence (P37268 whole entry): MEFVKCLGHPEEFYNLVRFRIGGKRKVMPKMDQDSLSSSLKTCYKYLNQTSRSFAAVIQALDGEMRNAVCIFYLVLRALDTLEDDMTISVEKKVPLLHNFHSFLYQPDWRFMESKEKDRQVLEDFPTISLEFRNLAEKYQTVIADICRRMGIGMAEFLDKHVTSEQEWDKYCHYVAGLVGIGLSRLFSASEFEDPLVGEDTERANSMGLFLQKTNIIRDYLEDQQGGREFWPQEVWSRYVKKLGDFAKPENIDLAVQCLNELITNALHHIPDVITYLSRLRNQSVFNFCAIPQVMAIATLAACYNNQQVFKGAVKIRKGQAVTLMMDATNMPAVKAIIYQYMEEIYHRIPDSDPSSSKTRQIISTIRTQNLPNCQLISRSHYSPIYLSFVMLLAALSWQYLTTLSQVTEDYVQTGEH
- assay explanation: Inhibition of human recombinant squalene synthase

{"chemical string": "COCCCOc1ccc(C#C[C@@]2(O)CN3CCC2CC3)c(Cc2ccccc2)n1", "readout units": "nM", "result modifier": "=", "IC50": 6}
{"chemical string": "C1=C(Cc2ccc(-c3ccccc3)cc2)C2CCN1CC2", "readout units": "nM", "result modifier": ">", "IC50": 20000}
{"chemical string": "O[C@]1(C#Cc2cccc(OCc3ccccc3)c2)CN2CCC1CC2", "readout units": "nM", "result modifier": ">", "IC50": 20000}
{"chemical string": "CO[C@H]1CN(c2ccc(C#C[C@@]3(O)CN4CCC3CC4)c(Cc3ccccc3)n2)C[C@H]1O", "readout units": "nM", "result modifier": "=", "IC50": 1.5}
{"chemical string": "C(#Cc1ccc(OCc2ccccc2)cc1)C1=CN2CCC1CC2", "readout units": "nM", "result modifier": "=", "IC50": 250}
{"chemical string": "CCOC(=O)c1ccc(C2=CN3CCC2CC3)cc1", "readout units": "nM", "result modifier": "=", "IC50": 7000}
